- Tested on: KM12
- EXPERIMENT NOTES: NCI tumour cell line growth inhibition, 48 h
Active and inactive are the calls of the source. Rule as the data show it: active = GI50 up to about 1.1 µM and inactive = higher.
Each item that follows carries a reported GI50.

C[C@@H]1CC(=O)[C@@]2(C)[C@](O)(CCC3O[C@]32C)[C@@]12CC(c1ccoc1)OC2=O (stereo not given in full)
> 100 µM (inactive)
Cc1ccc2c3c1[C@@H]1O[C@@H]1c1cccc(c1-3)[C@@H]1O[C@H]21
12.4 µM (inactive)
Cc1ccc(S(=O)(=O)N/N=C2\CC3CC4CCC2C4C3)cc1 (stereo not given)
> 100 µM (inactive)
O=C1c2ccccc2/N=C(/c2cc3c(cc2Cl)Sc2nccn2S3(=O)=O)OS(=O)(=O)N1c1ccccc1
23 µM (inactive)

query: Identify measured GI50 associated with c1ccc2nc3c(nc2c1)sc1ccccc13
result: 47.4 µM (inactive)

###

- Test system: HL-60
- EXPERIMENT NOTES: NCI tumour cell line growth inhibition, 48 h
Active and inactive are the calls of the source. No stated cut-off is given here; in the data, active = GI50 up to about 1.1 µM and inactive = higher.
Answer with one of the outcomes active, inactive

CC(=O)N1NC(c2ccccc2)=NC(=O)C1c1cc(C)c(O)c(C)c1 (stereo not given)
inactive
O=C1c2ccccc2N2Oc3ccccc3C12c1ccccc1 (stereo not given)
inactive
CC(=O)OCC(=O)O[C@@H]1[C@H]2[C@@H](OC(=O)c3ccccc3)[C@@H](C)C[C@]2(O)[C@H](OC(C)=O)[C@@]2(C)C[C@]1(OC(C)=O)C[C@H]1C(=O)C(C)(C)[C@@H](OC(C)=O)[C@@H]12
inactive

--- query ---
query: Could you please tell me the result logged for C=C(C)CC1=C(C(=S)NCCO[Si](C)(C)C(C)(C)C)C(OCC)(OCC)C1=O in this assay?
result: inactive

###

- Test system: ACHN
- EXPERIMENT NOTES: NCI tumour cell line growth inhibition, 48 h
Active and inactive are the calls of the source. Rule as the data show it: active = GI50 up to about 1.1 µM and inactive = higher. Where a SMILES comes first, the peptide text is derived from it. [ ]: non-standard residue; d: D form. Phe(F5) = N[CH](Cc1c(F)c(F)c(F)c(F)c1F)C(=O)O
PARAMETER MEASURED: GI50

COc1ccc(C(=C2C(=O)N(c3ccccc3)C(=O)C2=C(C)C)c2ccc(OC)cc2)cc1
4.69 µM (inactive)
c1cc2c3c(c1)[C@@H]1O[C@@H]1c1cccc(c1-3)[C@@H]1O[C@H]21
18.7 µM (inactive)
COC(=O)C(CC(C)C)NC(=O)C(Cc1c[nH]cn1)NC(=O)CNC(=O)C(NC(=O)C(C)NC(=O)C(Cc1c[nH]c2ccccc12)NC(=O)C(CCC(=O)O)NC(=O)C(N)Cc1c(F)c(F)c(F)c(F)c1F)C(C)C (configuration not stated) (H-[Phe(F5)]EWAVGHL-OMe; configuration not given here)
> 12.5 µM (inactive)

query: Please report GI50 with ACHN for item COc1ccccc1C1Nn2c(nc3ccccc3c2=O)N1c1ccc(C)cc1 (configuration not stated) .
result: 4 µM (inactive)

query: Give GI50 for this entry on ACHN: COC(=O)C(Cc1ccccc1)/N=C/c1c(O)c(O)c(C(C)C)c2cc(C)c(-c3c(C)cc4c(C(C)C)c(O)c(O)c(/C=N/C(Cc5ccccc5)C(=O)OC)c4c3O)c(O)c12 (configuration not stated)
result: 32.1 µM (inactive)

query: Report its GI50 with ACHN as the test system: O=C(c1ccc2ccccc2c1)C1(I)S(=O)(=O)OCCOS1(=O)=O
result: > 100 µM (inactive)

query: Give measured GI50 for COC(=O)C(C(=O)C(=O)NC1=C(Cl)C(=O)c2ccccc2C1=O)c1csc(-n2nc(-c3ccccc3)cc2-c2ccccc2)n1 (configuration not stated) (ACHN).
result: > 100 µM (inactive)

###

# maps each entry to its GI50
- Test system: A498
- EXPERIMENT NOTES: NCI tumour cell line growth inhibition, 48 h
Calls of active or inactive are those of the source. Cut-off read from the data, not from the text of the source: active = GI50 up to about 1.1 µM and inactive = higher.

For orientation, consider the following solved cases.
O=c1c(Cl)c(Cl)cnn1CCc1ccncc1
21.6 µM (inactive)
CC(C)C1=C(O)C(=O)C2=C(C1=O)C(O)CC1C(C)(C)CCCC21C (stereo not given)
14.3 µM (inactive)
C=C(C)CC1=C(OCC)C(OC)(OCC)C1=O (stereo not given)
> 100 µM (inactive)
O=S1(=O)OCCOS(=O)(=O)C1(F)Cc1ccccc1
> 100 µM (inactive)
CN(C)c1nc2n(CCO)c(-c3ccccc3)c(-c3ccccc3)nc-2c(=O)n1
> 100 µM (inactive)
CC(C)(C)[C@@H]1NC(=O)CN1C(=O)OCc1ccccc1
> 100 µM (inactive)

query: Give me measured GI50, please, for this compound: N=C(N)SCCC(=O)CCSC(=N)N
result: 5.5 µM (inactive)

query: Specify reported GI50 for the compound shown: Cc1nc2ccccc2c(=O)n1NC(=S)Nc1ccccc1
result: > 100 µM (inactive)

query: Return GI50 (reported value) for this compound: CC(C)c1cc2c(O)c(c1)Cc1cc(C(C)C)cc(c1O)Cc1cc(C(C)C)cc(c1O)Cc1cc(C(C)C)cc(c1O)C2
result: > 100 µM (inactive)

query: Quickly give me recorded GI50 for O=C1C(Cl)C(c2cc3cc(Br)ccc3nc2Cl)N1c1ccc(F)c(Cl)c1 (stereo not given)
result: 5.61 µM (inactive)

query: Name the recorded GI50 of the compound listed here: O=C1Nc2nc3ccccc3n2N=C2CCCC12 (stereo not given)
result: > 100 µM (inactive)

###

- System: DU-145
- EXPERIMENT NOTES: NCI tumour cell line growth inhibition, 48 h
Active and inactive are the calls of the source. Rule as the data show it: active = GI50 up to about 1.1 µM and inactive = higher.
Answer with one of the outcomes true (1) (active), false (0) (inactive)

CC1(C)CN=C(Nc2ccc(F)cc2)S1
false (0)

query: Recorded test outcome, item CN(C)c1ccc(C=c2c3ccccc3n3c2cc(-c2ccc(Cl)cc2)[n+]3C)cc1
result: true (1)

query: Outcome logged for N=C(N)c1ccc(/N=N\c2c(O)ccc3c2[nH]c2ccccc23)cc1 in this assay:
result: false (0)

query: Please let me know the test result on file for CCN(CC)CCCNc1nc(=O)[nH]c(C)c1C(=O)Nc1ccc2c(c1)c1ccccc1n2CC .
result: false (0)

query: Given C=C(C)CC1=C(OCC)C(OC)(OCC)C1=O (stereo not given) , state the outcome it received in this test.
result: false (0)

query: Query: recorded result category for CC(=O)C1=C(C)N2C(=NC3=C(CCc4ccccc43)C2c2cccc(Br)c2)S1 (stereo not given) in this test
result: false (0)

query: What call does the record list for O=C(Nc1ccccc1C(=O)NCc1ccccc1)/C(=C/c1ccccc1O)NC(=O)c1ccccc1 ?
result: false (0)

###

- Test system: OVCAR-8
- EXPERIMENT NOTES: NCI tumour cell line growth inhibition, 48 h
Calls of active or inactive are those of the source. Cut-off read from the data, not from the text of the source: active = GI50 up to about 1.1 µM and inactive = higher.
PARAMETER MEASURED: GI50

As a guide, the following entries are already answered.
CC(C)=CCOc1cc(NC(=S)c2ccoc2C)ccc1Cl
34.8 µM (inactive)
COC(=O)NC(Nc1ccc(C)cc1)(C(F)(F)F)C(F)(F)F
> 100 µM (inactive)
COc1ccc(/C=C2/C(=O)N(C(=O)c3ccc(Cl)cc3)N=C2C)cc1OC
> 100 µM (inactive)

query: Indicate its recorded GI50; the molecule in question is CCOC(=N)CC(=O)c1ccccc1
result: > 100 µM (inactive)

query: Supply reported GI50 belonging to this molecule: Cc1ccc(C2=Nc3cc(C)c(Cl)cc3S(=O)(=O)NN2)cc1
result: > 100 µM (inactive)

query: Provide measured GI50 value, entry: CC1(C)CN=C(Nc2ccc(F)cc2)S1
result: > 100 µM (inactive)

query: Please supply the value of reported GI50 for the item O=C(O)CNC(=O)c1ccc([As](=O)(O)O)cc1
result: > 100 µM (inactive)

query: Please give measured GI50 of the following entry: O=C(NCC(C(=O)OCc1ccccc1)C(=O)OCc1ccccc1)OCc1ccccc1
result: > 100 µM (inactive)

query: State its GI50 for this molecule: CC(=O)OCC1OC(Oc2cc(C)c(O)cc2C/C=C(\C)CC/C=C(\C)CC(=O)CC(C)C)C(O)C(OC(C)=O)C1OC(C)=O (stereo not drawn)
result: 16.9 µM (inactive)

###

- System: BT-549
- EXPERIMENT NOTES: NCI tumour cell line growth inhibition, 48 h
Calls of active or inactive are those of the source. Cut-off read from the data, not from the text of the source: active = GI50 up to about 1.1 µM and inactive = higher.
Hello, when you answer, please use one of the following outcomes: 1.0 for active, 0.0 for inactive

query: Tell me the assay call for O=c1[nH]nc(Cc2ccccc2)n1/N=C\c1ccccc1 please.
result: 0.0

###

- Test system: HOP-62
- EXPERIMENT NOTES: NCI tumour cell line growth inhibition, 48 h
Calls of active or inactive are those of the source. No stated cut-off is given here; in the data, active = GI50 up to about 1.1 µM and inactive = higher.
Entries and their GI50 values follow.

# annotated cases, reported GI50 shown
CC(C)(C)OC(=O)NCCCCC1NC(=O)[C@@H]2Cc3c([nH]c4ccccc34)C(C3CCCCC3)N2C1=O (some centres undefined)
41.4 µM (inactive)
COC(=O)C(C(=O)C(=O)NC1=C(Cl)C(=O)c2ccccc2C1=O)c1csc(-n2nc(-c3ccccc3)cc2-c2ccccc2)n1 (centres undefined)
> 100 µM (inactive)
CN1CCOC1(C)c1ccccc1 (centres undefined)
> 100 µM (inactive)
O=C1c2ccccc2-c2ccc(/N=N/c3c(O)ccc4ccccc34)cc21
> 100 µM (inactive)
CC=C/C=C/[C@@H]1O[C@](O)([C@H](CC)C(=O)NC/C=C/C=C(\C)[C@@H](OC)[C@@H](C)[C@@H]2O[C@H](/C=C/C=C/C=C(\C)C(=O)c3c(O)cc[nH]c3=O)[C@H](O)[C@@H]2O)[C@H](O)[C@H](O)C1(C)C
> 100 µM (inactive)
COC1(CC[C@H](C)COC2OC(CO)C(O)C(O)C2O)O[C@H]2C[C@H]3[C@@H]4CC=C5C[C@@H](OC6OC(CO)C(O)C(OC7OC(CO)C(O)C(O)C7O)C6OC6OC(C)C(O)C(O)C6O)CC[C@]5(C)[C@H]4CC[C@]3(C)[C@H]2[C@@H]1C (some centres undefined)
5.51 µM (inactive)
CC(=O)OCC(=O)O[C@@H]1[C@H]2[C@@H](OC(=O)c3ccccc3)[C@@H](C)C[C@]2(O)[C@H](OC(C)=O)[C@@]2(C)C[C@]1(OC(C)=O)C[C@H]1C(=O)C(C)(C)[C@@H](OC(C)=O)[C@@H]12
5.78 µM (inactive)
O=S1(=O)CC#CC[C@@H](CO)[C@@H](CO)CC#CC1
> 100 µM (inactive)

Then there is this molecule:
query: Given COC(=O)/C=C1\C(=O)N(C(C)=O)c2ccccc21 , respond with its GI50.
result: 12.9 µM (inactive)
